System: Pseudomonas aeruginosa
Test: Antibioflim activity in Pseudomonas aeruginosa PAO1
Format: functional, organism-based
Measurement kind: pIC50
One number for each entry, as −log10 of the molar value.

Qu. Recorded pIC50 for Nc1ncc(/C=C/CNC(=O)c2cc(Br)c(Br)[nH]2)[nH]1 [OROIDIN] , please?
Ans. 3.72

* * *

Consider the following compounds; for each one, report its Activity.
System: Caenorhabditis elegans
Test: Toxicity in Caenorhabditis elegans L4 stage larva assessed as toxicity threshold after 6 to 7 days
Format: organism-based
Run parameters: in vivo
Numbers only, in mM.

Answered examples (2):
CCCCCCC(CCCCCC)NC(=O)CCCc1c[nH]c(N)n1 ... 0.95
Cn1c(C(=O)NCCCc2c[nH]c(N)n2)cc(Br)c1Br [DIHYDROSVENTRIN] ... 0.48

Now for a further compound.
Qu. Recorded Activity for Nc1ncc(/C=C/CNC(=O)c2cc(Br)c(Br)[nH]2)[nH]1 [OROIDIN] , please?
Ans. 0.65
